molecular target: T1, biotinylated synthetic human Amyloid beta 1-42 peptide (human, UniProt P05067 672-713, biotinylated (N-terminal biotin in Example 4)); test: HTRF epitope competition; purified scFv titrated; competitor Abet0144-GL IgG1-TM
T1 construct: domain: Amyloid beta 1-42 peptide; Numbers 1-42 count on the Amyloid beta peptide, not on APP; also called biotinylated human Amyloid beta 1-42; N-terminal biotin Abeta 1-42
T1 sequence (P05067 672-713 limits assumed): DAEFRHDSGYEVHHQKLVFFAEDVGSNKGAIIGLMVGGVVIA
READOUT TYPE: IC50 (nM)
API: value field is a number in nM; no unit string.

-- ask Quick one: IC50 for Abet0368 scFv (scFv, V domains shown, not shown: small tags and cut ends, Purified scFv expressed in E. coli) VH: EVQLLESGGGLVQPGGSLRLSCAASGFDFGPSPMWWVRQAPGKGLEWVSVIGKDTQNSTYADSVKGRFTISRDNSKDTLYLQMNSLKAEDTAVYYCAREWMDHSRPYYYYGMDVWGQGTLVTVSS VL: SYELTQPPSVSVSPGQTASITCSGHNLEDKFTSWYQQKSGQSPVLVIYRDDKRPSGIPERFSASNSGHTATLTISGAQATDEADYYCSSQDTVTRVFGGGTKLTVL ?
-- reply 0.55
